Source listed as patent US11566007B2.

- subject.of.test: KRAS G12S (Homo sapiens (Human), UniProt P01116+P62937, G12S)
- Sequence (P01116-2 other isoform, or with tags, fused parts or gaps G12S): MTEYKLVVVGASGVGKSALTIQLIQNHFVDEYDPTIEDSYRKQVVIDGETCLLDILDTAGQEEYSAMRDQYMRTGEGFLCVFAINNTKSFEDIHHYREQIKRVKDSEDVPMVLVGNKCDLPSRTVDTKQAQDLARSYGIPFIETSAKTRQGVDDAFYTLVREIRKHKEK
- Sequence (P62937 whole entry): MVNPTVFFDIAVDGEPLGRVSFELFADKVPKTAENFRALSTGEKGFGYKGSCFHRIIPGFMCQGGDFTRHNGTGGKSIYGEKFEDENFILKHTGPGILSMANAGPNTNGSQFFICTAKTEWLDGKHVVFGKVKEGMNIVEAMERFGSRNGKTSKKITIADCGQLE
- measurement.protocol: Ras-Raf (BRAF RBD) disruption / FRET / MOA assay, KRAS G12S
- Format: biochemical
- setup.conditions: Ras-Raf disruption/FRET/MOA assay; class symbols; read-out: KRAS G12S FRET data IC50
- Experimental: The purpose of this biochemical assay is to measure the ability of test compounds to facilitate ternary complex formation between a nucleotide-loaded Ras isoform and cyclophilin A; the resulting ternary complex disrupts binding to a BRAF^RBD construct, inhibiting Ras signaling through a RAF effector. Compound is present in plate wells as a 10-point 3-fold dilution series starting at a final concentration of 30 μM. […]
The entries below come with measured IC50 values attached.

- C=CC(=O)N1CC[C@H](C(=O)N(C)[C@H](C(=O)N[C@H]2Cc3cc(O)cc(c3)-c3ccc4c(c3)c(c(-c3cc(CN(C)C)cnc3[C@H](C)OC)n4CC)CC(C)(C)COC(=O)[C@@H]3CCCN(N3)C2=O)C(C)C)C1 (atropisomer, axis not shown) [Example A536]: 100 to 1000 nM
- C=CC(=O)N1CC[C@H](C(=O)N(C)[C@H](C(=O)N[C@H]2Cc3cccc(n3)-c3ccc4c(c3)c(c(-c3cccnc3[C@H](C)OC)n4CC)CC(C)(C)COC(=O)[C@@H]3CCCN(N3)C2=O)C(C)C)C1 (atropisomer, axis not shown): 1000 to 10000 nM
- C=CC(=O)N1CC[C@]2(C1)CN(C(=O)N(C)[C@H](C(=O)N[C@H]1Cc3nc(cs3)-c3ccc4c(c3)c(c(-c3cccnc3[C@H](C)OC)n4CC)CC(C)(C)COC(=O)[C@@H]3CCCN(N3)C1=O)C(C)C)CCO2 (atropisomer, axis not shown): 100 to 1000 nM
- CCn1c(-c2cccnc2[C@H](C)OC)c2c3cc(ccc31)-c1csc(n1)C[C@H](NC(=O)[C@@H](COC1CN(C(=O)C#CC(C)(C)N(C)C)C1)OC)C(=O)N1CCC[C@H](N1)C(=O)OCC(C)(C)C2 (atropisomer, axis not shown): 1000 to 10000 nM

Looking for the measured IC50 of `CCn1c(-c2cccnc2COC)c2c3cc(ccc31)-c1cc(O)cc(c1)C[C@H](NC(=O)[C@H](C(C)C)N(C)C(=O)C1CN(C(=O)/C=C/CN(C)C)C1)C(=O)N1CCC[C@H](N1)C(=O)OCC(C)(C)C2` , can you help? 1000 to 10000 nM

What does the record list as IC50 for `CCn1c(-c2cccnc2)c2c3cc(ccc31)-c1cccc(c1)C[C@H](NC(=O)[C@H](C(C)C)N(C)C(=O)[C@H]1CCN(C(=O)C#CCN(C)C)C1)C(=O)N1CCC[C@H](N1)C(=O)OCC(C)(C)C2` ? > 10000 nM

Suppose we examine the molecule C=CC(=O)Nc1cnc(C(=O)N(C)[C@H](C(=O)N[C@H]2Cc3cc(O)cc(c3)-c3ccc4c(c3)c(c(-c3cccnc3[C@H](C)OC)n4CC)CC(C)(C)COC(=O)[C@@H]3CCCN(N3)C2=O)C(C)C)n1C (atropisomer, axis not shown) [Example A255] ; what IC50 value has been reported? 10 to 100 nM

Item under review: C=CC(=O)N1CC[C@]2(C1)OCN([C@H](C(=O)N[C@H]1Cc3cccc(c3)-c3ccc4c(c3)c(c(-c3cccnc3[C@H](C)OC)n4CC)CC(C)(C)COC(=O)[C@@H]3CCCN(N3)C1=O)C(C)C)C2=O (atropisomer, axis not shown) . Reported IC50? 1000 to 10000 nM

For CC#CC(=O)N1CC[C@H](C(=O)N(C)[C@H](C(=O)N[C@H]2Cc3cccc(c3)-c3ccc4c(c3)c(c(-c3cccnc3[C@H](C)OC)n4C#N)CC(C)(C)COC(=O)[C@@H]3CCCN(N3)C2=O)C(C)C)C1 (atropisomer, axis not shown) , what is its reported IC50? > 10000 nM

Which measured IC50 value corresponds to C=CC(=O)N1CC(OCC(C(=O)N[C@H]2Cc3cccc(c3)-c3ccc4c(c3)c(c(-c3cccnc3[C@H](C)OC)n4CC(F)(F)F)CC(C)(C)COC(=O)[C@@H]3CCCN(N3)C2=O)C(C)C)C1 (mixture of isomers) ? > 10000 nM

Field request: IC50 | item: `C=CC(=O)N1CC[C@H](C(=O)N(C)[C@H](C(=O)N[C@H]2Cc3nc(cs3)-c3ccc4c(n3)c(c(-c3cccnc3[C@H](C)OC)n4CC)CC(C)(C)COC(=O)[C@@H]3CCCN(N3)C2=O)C(C)C)C1` 1000 to 10000 nM

Any idea what IC50 was measured for C=CC(=O)N1CC[C@H](C(=O)N(C)[C@H](C(=O)N[C@H]2Cc3cccc(c3)-c3ccc4c(c3)c(c(-c3cnccc3[C@H](C)OC)n4CC)CC(C)(C)COC(=O)[C@@H]3CCCN(N3)C2=O)C(C)C)C1 [Example A122] ? > 10000 nM

What measured IC50 goes with `C=CC(=O)N1CC[C@H](C(=O)N(C)[C@H](C(=O)N[C@H]2Cc3cc(O)cc(c3)-c3ccc4c(c3)c(c(-c3cc(CN(C)C)nn3C)n4CC)CC(C)(C)COC(=O)[C@@H]3CCCN(N3)C2=O)C(C)C)C1` ? 1000 to 10000 nM

Any idea what its IC50 is? The molecule is CCn1c(-c2cccnc2[C@H](C)OC)c2c3cc(ccc31)-c1csc(n1)C[C@H](NC(=O)[C@H](C(C)C)N(C)C(=O)N1CCN(C(=O)/C=C/CN(C)C)C[C@@H]1C)C(=O)N1CCC[C@H](N1)C(=O)OCC(C)(C)C2 (atropisomer, axis not shown) 100 to 1000 nM

Record request: IC50 value, item CCn1c(-c2cccnc2[C@H](C)OC)c2c3cc(ccc31)-c1cc(cc(C(F)F)c1)C[C@H](NC(=O)[C@H](C1CCCC1)N(C)C(=O)[C@H]1CCN(C(=O)C#CC(C)(C)N3CCC3)C1)C(=O)N1CCC[C@H](N1)C(=O)OCC(C)(C)C2 (atropisomer, axis not shown) 1000 to 10000 nM
